Reported viability, T/C values for the following compounds.
system: K98450-129-R-PDC complex spheroid growth, percent test/control; assay: Anticancer human tumor K98450-129-R-PDC patient-derived colon adenocarcinoma cell line growth inhibition [RAS]; details: second compound 0.0949 µM; first compound 0.1 µM; hits give low values;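 further: luminescence used as a proxy for viable cell amount; spheroids exposed to agents for seven days before the viability readout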
Numeric answer only, unit % assumed.

compound: NC1c2ccccc2OC12CCN(c1cnc3c(N4CCCc5ncccc54)n[nH]c3n1)CC2 (configuration not stated) + CCn1c(-c2cc(N3CCN(C)CC3)cnc2C(C)OC)c2c3cc(ccc31)-c1csc(n1)CC(NC(=O)C1CC1C)C(=O)N1CCCC(N1)C(=O)OCC(C)(C)C2
assayed target: K98450-129-R-PDC complex spheroid growth, percent test/control;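 further: luminescence used as a proxy for viable cell amount; spheroids exposed to agents for seven days before the viability readout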
outcome measure: viability, T/C
endpoint unit: %
observed value: 7.59

Below: the item to evaluate.
Record CC(=O)OC12COC1CC(O)C1(C)C(=O)C(O)C3=C(C)C(OC(=O)C(O)C(NC(=O)OC(C)(C)C)c4ccccc4)CC(O)(C(OC(=O)c4ccccc4)C21)C3(C)C (configuration not stated) + CCn1c(-c2cc(N3CCN(C)CC3)cnc2C(C)OC)c2c3cc(ccc31)-c1csc(n1)CC(NC(=O)C1CC1C)C(=O)N1CCCC(N1)C(=O)OCC(C)(C)C2 ; system K98450-129-R-PDC complex spheroid growth, percent test/control; viability, T/C = 14.5
